ASSAYED_TARGET: Histone deacetylase 1 (Homo sapiens, UniProt Q13547)
Sequence (Q13547 whole entry, the tested form may be a part): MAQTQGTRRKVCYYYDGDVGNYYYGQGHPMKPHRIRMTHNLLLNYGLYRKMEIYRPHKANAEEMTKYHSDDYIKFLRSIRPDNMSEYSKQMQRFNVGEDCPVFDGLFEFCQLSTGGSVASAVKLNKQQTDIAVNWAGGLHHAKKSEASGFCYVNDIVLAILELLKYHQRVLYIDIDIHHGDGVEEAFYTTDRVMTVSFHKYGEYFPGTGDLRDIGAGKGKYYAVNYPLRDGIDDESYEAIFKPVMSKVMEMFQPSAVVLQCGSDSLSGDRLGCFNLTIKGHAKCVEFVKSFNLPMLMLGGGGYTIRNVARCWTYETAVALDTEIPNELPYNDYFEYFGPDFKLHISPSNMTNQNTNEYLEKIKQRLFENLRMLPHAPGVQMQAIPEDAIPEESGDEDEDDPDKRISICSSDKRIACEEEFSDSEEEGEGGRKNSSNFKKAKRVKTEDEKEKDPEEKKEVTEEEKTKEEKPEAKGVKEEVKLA
EXPERIMENTAL_DETAILS: Inhibition of recombinant human C-terminal FLAG-His-tagged HDAC1 (1 to 482 residues) expressed in Sf21 cells using RHK-K(Ac)-AMC as substrate incubated for 60 mins by fluorimetry analysis
ASSAY_READOUT: IC50 (µM)

(P) CC(C)c1cc(C(=O)N2Cc3ccc(/C=C/C(=O)NO)cc3C2)c(O)cc1O
(Q) CC(C)c1cc(C(=O)N2Cc3ccc(NC(=O)CCCC(=O)NO)cc3C2)c(O)cc1O
Query string: Field: lower recorded IC50 (choose P or Q ) I would appreciate it if you answered with the label of your choice.
Result string: P
(P: 3.15 µM, Q: 7.43 µM)
